- Assayed system: GPR84 (Homo sapiens, UniProt Q9NQS5)
- Construct: expressed in transfected cells; membranes used
- Sequence (Q9NQS5 whole entry): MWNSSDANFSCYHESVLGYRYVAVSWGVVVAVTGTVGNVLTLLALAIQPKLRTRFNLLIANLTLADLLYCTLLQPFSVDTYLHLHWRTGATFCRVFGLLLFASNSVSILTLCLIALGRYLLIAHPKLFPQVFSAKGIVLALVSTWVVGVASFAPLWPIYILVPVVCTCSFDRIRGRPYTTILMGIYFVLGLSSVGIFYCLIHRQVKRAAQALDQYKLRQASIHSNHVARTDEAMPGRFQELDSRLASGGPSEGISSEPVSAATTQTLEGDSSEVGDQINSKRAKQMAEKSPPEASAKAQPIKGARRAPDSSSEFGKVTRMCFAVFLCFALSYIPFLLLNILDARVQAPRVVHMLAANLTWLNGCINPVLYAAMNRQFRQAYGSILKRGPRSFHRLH
- Experiment description: GTPγS binding assay (GPR84)
- Format: biochemical
- Protocol conditions: membranes from stable cell line over expressing GPR84; 3,3′ di indolylmethane at EC80
pIC50: −log10 of the molar value.
Listed compounds paired with reported pIC50

Request: // Input: CC1(COCc2ccc3c(c2)CCn2c-3cc(OC[C@@H]3COCCO3)nc2=O)COC1 [Compound 125] . Output its pIC50 only.
Response: 6.00 to 6.30

Request: // Input: CCOCCOCC#Cc1ccc2c(c1)CCn1c-2cc(OC[C@@H]2COCCO2)nc1=O [Compound 134] . Output its pIC50 only.
Response: 6.30 to 7.00

Request: // Input: O=c1nc(OCC2COCCO2)cc2n1CCc1cc(C#Cc3cccnc3)ccc1-2 (centres unmarked) [Compound 41] . Output its pIC50 only.
Response: 6.30 to 7.00

Request: // Input: CCCC(O)C#Cc1ccc2c(c1)CCn1c-2cc(OCC2COCCO2)nc1=O (centres unmarked) [Compound 98] . Output its pIC50 only.
Response: 7.00 to 11.00

Request: // Input: O=c1nc(OCC2COCCO2)cc2n1CCc1cc(C#Cc3ccccn3)ccc1-2 (centres unmarked) [Compound 36] . Output its pIC50 only.
Response: 7.00 to 11.00

Request: // Input: CCOc1ccc(-c2ccc3c(c2)CCn2c-3cc(OCC3COCCO3)nc2=O)cn1 (centres unmarked) [Compound 61] . Output its pIC50 only.
Response: 7.00 to 11.00

Request: // Input: O=c1nc(OC[C@@H]2COCCO2)cc2n1CCc1cc(COCC3CC3)ccc1-2 [Compound 138] . Output its pIC50 only.
Response: 7.00 to 11.00

Request: // Input: CC(C)Oc1ccc(-c2ccc3c(c2)CCn2c-3cc(OCC3COCCO3)nc2=O)cn1 (centres unmarked) [Compound 60] . Output its pIC50 only.
Response: 7.00 to 11.00
